meta.source: ChEMBL document CHEMBL3124843

Documented pIC50 across a set of compounds
system: Mycobacterium tuberculosis; assay: Antimycobacterial activity against Mycobacterium bovis BCG after 5 days by MTT assay; type: functional, organism-based; details: variant bovis BCG, 120 h
Worth noting: pIC50 values are minus log10 of concentrations stated in mol/L.

Some compounds with known pIC50 results, for comparison:
INSERT INTO assay_data (smiles_structure, endpoint_result) VALUES
  ('Cc1ncnc2c1c(-c1ccoc1)cn2[C@@H]1O[C@H](CO)[C@@H](O)[C@H]1O', 5.03),
  ('CSc1ncnc2c1c(I)cn2[C@@H]1O[C@H](CO)[C@@H](O)[C@H]1O', 4.06),
  ('CNc1ncnc2c1c(I)cn2[C@@H]1O[C@H](CO)[C@@H](O)[C@H]1O', 4.00),
  ('Nc1nc(N)c2c(-c3ccco3)cn([C@@H]3O[C@H](CO)[C@@H](O)[C@H]3O)c2n1', 4.08);

Problem: Please report the recorded pIC50 for Nc1nc(N)c2c(-c3ccoc3)cn([C@@H]3O[C@H](CO)[C@@H](O)[C@H]3O)c2n1 .
Result: 4.15
